- test_description: AUC (0 to 6 hrs) in rat at 10 mg/kg, po
- Format: ADME, organism-based
- Parameters: time < 6 hr, dose 10 mg/kg, route oral
- condition_parameters: plasma
endpoint_name: AUC(0-t) at 6 h (µM·h)

compound_structure_string: Nc1c(C(=O)c2ccc(F)cc2F)cc[n+]([O-])c1-c1ccccc1Cl
scale_unit: µM·h
recorded_value: 54.4
--
compound_structure_string: Cc1ccccc1-c1c(N)c(C(=O)c2ccc(F)cc2F)cc[n+]1[O-]
scale_unit: µM·h
recorded_value: 22.2
